Biological target: HLA-DR1 (DRA*01:01/DRB1*01:01) (Homo sapiens, UniProt P01903+P01911, A100R/D57E/F55L/F60I/F76Y/I96L/L162R/M171V/P40L/Q125E/R42F/V115G/Y59C)
Construct: HLA-DR1 (DRA*01:01/DRB1*01:01) extracellular domain was expressed in Drosophila S2 cells; made in house
Assay: biochemical
Assay type: binding
Details: 72 h, read-out: fraction of labeled HA binding inhibited
metric.name: inhibition at 160 µM (%)
Note: unit % is implicit; provide only the numeric part.

Answered cases to consult:
CC(=O)N1CCC[C@H]1C(=O)N[C@@H](CCCNC(=N)N)C(=O)N[C@@H](Cc1ccc(O)cc1)C(=O)N[C@H](C(=O)N[C@@H](CCCCN)C(=O)NC(CC(=O)N[C@@H](CC(N)=O)C(=O)N[C@H](C(=O)N[C@@H](CC(C)C)C(=O)N[C@@H](CCCNC(=N)N)C(=O)N[C@@H](CC(C)C)C(=O)N[C@@H](C)C(=O)N[C@H](C(=O)O)[C@@H](C)O)[C@@H](C)O)c1ccccc1[N+](=O)[O-])C(C)C (stereo partly shown) [Ac-photoHA]    59
CC(C)C[C@H](NC(=O)[C@H](CCCNC(=N)N)NC(=O)[C@H](CC(C)C)NC(=O)[C@@H](NC(=O)[C@H](CC(N)=O)NC(=O)CC(NC(=O)[C@H](CCCCN)NC(=O)[C@@H](NC(=O)[C@H](Cc1ccc(O)cc1)NC(=O)[C@H](CCCNC(=N)N)NC(=O)[C@@H]1CCCN1)C(C)C)c1ccccc1[N+](=O)[O-])[C@@H](C)O)C(=O)N[C@@H](C)C(=O)N[C@H](C(=O)O)[C@@H](C)O (stereo partly shown) [photoHA]    66.3

Q) Identify inhibition at 160 µM associated with the molecule CC(C)C[C@H](NC(=O)[C@H](CCCNC(=N)N)NC(=O)[C@H](CC(C)C)NC(=O)[C@@H](NC(=O)[C@H](CC(N)=O)NC(=O)CC(NC(=O)[C@H](CCCCN)NC(=O)[C@@H](NC(=O)[C@@H](N)Cc1ccc(O)cc1)C(C)C)c1ccccc1[N+](=O)[O-])[C@@H](C)O)C(=O)N[C@@H](C)C(=O)N[C@H](C(=O)O)[C@@H](C)O (stereo partly shown) [photoHA-Δ1–2]
A) 9.88

Q) Identify inhibition at 160 µM associated with the molecule CC(=O)N[C@@H](Cc1ccc(O)cc1)C(=O)N[C@H](C(=O)N[C@@H](CCCCN)C(=O)NC(CC(=O)N[C@@H](CC(N)=O)C(=O)N[C@H](C(=O)N[C@@H](CC(C)C)C(=O)N[C@@H](CCCNC(=N)N)C(=O)N[C@@H](CC(C)C)C(=O)N[C@@H](C)C(=O)N[C@H](C(=O)O)[C@@H](C)O)[C@@H](C)O)c1ccccc1[N+](=O)[O-])C(C)C (stereo partly shown) [Ac-photoHA-Δ1–2]
A) 39.8

====

Biological target: HLA-DR1 (DRA*01:01/DRB1*01:01) (Homo sapiens, UniProt P01903+P01911, A100R/D57E/F55L/F60I/F76Y/I96L/L162R/M171V/P40L/Q125E/R42F/V115G/Y59C)
Construct: HLA-DR1 (DRA*01:01/DRB1*01:01) extracellular domain was expressed in Drosophila S2 cells; made in house
Assay: biochemical
Assay type: binding
Conditions: 72 h, read-out: fraction of labeled HA binding inhibited
Recorded inhibition at 0.256 µM by entry
Note: unit % is implicit; provide only the numeric part.

CC(=O)N[C@@H](Cc1ccc(O)cc1)C(=O)N[C@H](C(=O)N[C@@H](CCCCN)C(=O)NC(CC(=O)N[C@@H](CC(N)=O)C(=O)N[C@H](C(=O)N[C@@H](CC(C)C)C(=O)N[C@@H](CCCNC(=N)N)C(=O)N[C@@H](CC(C)C)C(=O)N[C@@H](C)C(=O)N[C@H](C(=O)O)[C@@H](C)O)[C@@H](C)O)c1ccccc1[N+](=O)[O-])C(C)C (stereo partly shown)    -1.47
CC(C)C[C@H](NC(=O)[C@H](CCCNC(=N)N)NC(=O)[C@H](CC(C)C)NC(=O)[C@@H](NC(=O)[C@H](CC(N)=O)NC(=O)CC(NC(=O)[C@H](CCCCN)NC(=O)[C@@H](NC(=O)[C@@H](N)Cc1ccc(O)cc1)C(C)C)c1ccccc1[N+](=O)[O-])[C@@H](C)O)C(=O)N[C@@H](C)C(=O)N[C@H](C(=O)O)[C@@H](C)O (stereo partly shown)    -1.94

Q) Identify inhibition at 0.256 µM associated with the compound CC(C)C[C@H](NC(=O)[C@H](CCCNC(=N)N)NC(=O)[C@H](CC(C)C)NC(=O)[C@@H](NC(=O)[C@H](CC(N)=O)NC(=O)CC(NC(=O)[C@H](CCCCN)NC(=O)[C@@H](NC(=O)[C@H](Cc1ccc(O)cc1)NC(=O)[C@H](CCCNC(=N)N)NC(=O)[C@@H]1CCCN1)C(C)C)c1ccccc1[N+](=O)[O-])[C@@H](C)O)C(=O)N[C@@H](C)C(=O)N[C@H](C(=O)O)[C@@H](C)O (stereo partly shown)
A) -1.65

Q) Identify inhibition at 0.256 µM associated with the compound CC(=O)N1CCC[C@H]1C(=O)N[C@@H](CCCNC(=N)N)C(=O)N[C@@H](Cc1ccc(O)cc1)C(=O)N[C@H](C(=O)N[C@@H](CCCCN)C(=O)NC(CC(=O)N[C@@H](CC(N)=O)C(=O)N[C@H](C(=O)N[C@@H](CC(C)C)C(=O)N[C@@H](CCCNC(=N)N)C(=O)N[C@@H](CC(C)C)C(=O)N[C@@H](C)C(=O)N[C@H](C(=O)O)[C@@H](C)O)[C@@H](C)O)c1ccccc1[N+](=O)[O-])C(C)C (stereo partly shown)
A) -1.71
